# pIC50 listing for each entry below
System: PANC-1
Test: Cytotoxicity in human PANC1 cells assessed as cell viability after 48 hrs by MTT assay
Type: functional, cell-based
Settings: PANC-1, 48 h
pIC50: −log10 of the molar value.

Use the examples below as a reference point.
>>> meas_value("O=c1[nH]cc(F)c(=O)[nH]1")
4.27
>>> meas_value("C=C(CC[C@@H](C(=O)OC)[C@H]1CC[C@@]2(C)C3=CC[C@H]4C(C)(C)C(=O)CC[C@]4(C)C3=CC[C@]12C)C(C)C")
"< 4.00"
>>> meas_value("C=C(CC[C@@H](C(=O)OC)[C@H]1CC[C@@]2(C)C3=CC[C@@H](C(=C)C)[C@](C)(CCC(=O)OC)C3=CC[C@]12C)C(C)C [DIMETHYL PORICOATE C]")
"< 4.00"
>>> meas_value("C=C(CC[C@@H](C(=O)O)[C@H]1[C@H](O)C[C@@]2(C)C3=CC[C@@H](C(=C)C)[C@](C)(CCC(=O)O)C3=CC[C@]12C)C(C)C")
"< 4.00"

Please examine the following record next.
In plain terms, C=C(CC[C@@H](C(=O)O)[C@H]1[C@H](O)C[C@@]2(C)C3=C(CC[C@]12C)[C@@](C)(CCC(=O)O)[C@H](C(=C)C)CC3)C(C)C has a documented pIC50 of < 4.00

The values you see were collected from ChEMBL document CHEMBL1765085.
